Dear all, this message contains Kd results, target or system FABP4 (Homo sapiens, UniProt P15090).
measured-parameter: Kd (µM)

// known answers, use as guide
compound: Cc1ccc(CC2CCCN2C(=O)c2nc3ccccc3nc2O)cc1 (centres unmarked) [Compound 1-117]
Kd / µM: 9.8
--
compound: O=C(c1nc2ccccc2nc1O)N1CCCC(Cc2ccccc2)C1 (racemic) [Compound 1-83]
Kd / µM: 16.2
--
compound: CN(Cc1ccccc1)C(=O)c1nc2ccccc2nc1O [Compound 1-98]
Kd / µM: 28.4

I. CN(Cc1cccc(Cl)c1)C(=O)c1nc2ccccc2nc1O [Compound 1-143]
II. Cc1ccc(C(C)C)cc1N(C)C(=O)c1nc2ccccc2nc1O [Compound 1-124]
Of I and II , whose reported Kd is numerically smaller? Your answer should be the label of the entry you select.
II

* * *

Molecular target: FABP4 (Homo sapiens, UniProt P15090)
Sequence (P15090 whole entry): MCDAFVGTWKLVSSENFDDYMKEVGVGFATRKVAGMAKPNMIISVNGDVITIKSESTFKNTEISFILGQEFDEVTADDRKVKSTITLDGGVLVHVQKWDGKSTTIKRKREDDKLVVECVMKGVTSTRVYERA
pKd: −log10 of the molar value.
measured-parameter: pKd

A selection of reference data follows.
compound: O=C(c1nc2c(F)cc(F)cc2nc1O)N1CCC[C@H]1Cc1cc(Cl)cc(Cl)c1 [9-18]
target-system: FABP4 (Homo sapiens, UniProt P15090)
pKd: 7.30

compound: O=C(c1nc2cc(S(=O)(=O)C(F)(F)F)ccc2nc1O)N1CCCC1Cc1cccc(Cl)c1 (racemic) [Compound 1-24]
target-system: FABP4 (Homo sapiens, UniProt P15090)
pKd: 6.52

compound: O=C(c1nc2ccccc2nc1O)N1CCCCCC1Cc1ccc(Cl)cc1 (racemic) [Compound 1-93]
target-system: FABP4 (Homo sapiens, UniProt P15090)
pKd: 5.05

compound: O=C(c1nc2cc(OC(F)(F)F)ccc2nc1O)N1CCCC1Cc1cccc(Cl)c1 (racemic) [Compound 1-20]
target-system: FABP4 (Homo sapiens, UniProt P15090)
pKd: 6.02

compound: O=C(c1nc2cc(Br)ccc2nc1O)N1CCCC1Cc1cccc(Cl)c1 (racemic) [Compound 1-37]
target-system: FABP4 (Homo sapiens, UniProt P15090)
pKd: 6.07

compound: O=C(c1nc2ccc(I)cc2nc1O)N1CCCC1Cc1cccc(Cl)c1 (racemic) [Compound 1-19]
target-system: FABP4 (Homo sapiens, UniProt P15090)
pKd: 6.34

A. COc1ccc2nc(O)c(C(=O)N3CCCC3Cc3cccc(Cl)c3)nc2c1 (racemic) [Compound 1-27]
B. O=C(c1nc2ccccc2nc1O)N1CCC[C@H]1CNc1ccccc1 [Compound 1-65]
Of A versus B , which is the one with smaller reported pKd? State the label of the item chosen.
B

A. O=C(c1nc2ccccc2nc1O)N1CCCCC1Cc1cccc(F)c1 (racemic) [Compound 1-74]
B. O=C(c1nc2cccc(Cl)c2nc1O)N1CCCC1Cc1cccc(F)c1 (stereo not shown) [Compound 1-161]
When the recorded pKd values are compared, which is smaller: that of A or that of B ? Respond with the label that goes with your answer.
A

* * *

Target: FABP4 (Homo sapiens, UniProt P15090)
pKd: −log10 of the molar value.
measured-parameter: pKd

Some compounds with recorded pKd:
compound: O=C(c1nc2cc(Cl)ccc2nc1O)N1CCCC1Cc1cccc(Cl)c1 (racemic)
target-system: FABP4 (Homo sapiens, UniProt P15090)
pKd: 6.39
--
compound: O=C(c1nc2ccc(C(F)(F)F)cc2nc1O)N1CCCC1Cc1cccc(F)c1 (centres unmarked)
target-system: FABP4 (Homo sapiens, UniProt P15090)
pKd: 8.70
--
compound: O=C(c1nc2ccccc2nc1O)N1CCCC1Cc1ccccc1Cl (centres unmarked)
target-system: FABP4 (Homo sapiens, UniProt P15090)
pKd: 5.74
--
compound: O=C(c1nc2ccccc2nc1O)N1CCCC1Cc1ccccc1 (centres unmarked)
target-system: FABP4 (Homo sapiens, UniProt P15090)
pKd: 5.34
--
compound: N#Cc1ccc2nc(C(=O)N3CCCC3Cc3cccc(Cl)c3)c(O)nc2c1 (racemic)
target-system: FABP4 (Homo sapiens, UniProt P15090)
pKd: 6.30
--
compound: O=C(c1nc2cc(F)ccc2nc1O)N1CCCC1Cc1cccc(Cl)c1 (racemic)
target-system: FABP4 (Homo sapiens, UniProt P15090)
pKd: 6.52

1. O=C(c1nc2ccc(OC(F)(F)F)cc2nc1O)N1CCCC1Cc1cccc(Cl)c1 (racemic)
2. O=C(c1nc2cccc(C(F)(F)F)c2nc1O)N1CCCC1Cc1cccc(Cl)c1 (racemic)
// compare measured pKd between 1 and 2 ; output the lower one To answer, give the label that identifies your chosen option.
1
(1: 6.66, 2: 8.70)
